Every entry's value here was drawn from PubChem BioAssay AID1996.

conditions: buffer; pH 7.4; 200.0 µM
Please respond with reported solubility kinetic for every item in the list.

Just so you know, measured solubility kinetic for Cc1ccc(C(=O)C[n+]2ccccc2)cc1.[I-] came out at > 50.9 µg/mL

According to the records, this compound O=C(Nc1ccccc1)C1CCCN1/C=C/C(=O)C(F)(F)F (stereo not drawn) displays solubility kinetic of > 46.8 µg/mL

The compound Cc1ccnc(SC2CC(=O)N(c3ccc(C(C)C)cc3)C2=O)n1 (stereo not drawn) showed solubility kinetic equal to > 51.2 µg/mL

The recorded solubility kinetic for Cc1ccc(S(=O)(=O)NCCC(=O)NC2CCCCCC2)cc1C is > 52.9 µg/mL

Measured solubility kinetic, Cc1ccc(NC(=O)NC(=O)CN2CCC(C(N)=O)CC2)c(C)c1 : > 49.9 µg/mL

Form: compound = Cc1ccc(-c2c[n+](Cc3ccc(Cl)cc3)c3n2CCC3)cc1.[Cl-] ; solubility kinetic = > 53.9 µg/mL

Note to self: solubility kinetic recorded for COc1ccc(NC(=S)Nc2ccc(N(C)C(C)=O)cc2)cc1 was > 49.4 µg/mL

Per the record, COC(=O)c1ccccc1NC(=O)Nc1ccc(Cl)cn1 has solubility kinetic of > 45.9 µg/mL

###

conditions: buffer; pH 7.4; 200.0 µM
Kindly supply the reported solubility kinetic values for the records listed here.

COc1cc(CC(=O)N(CC(C)C)C2CCS(=O)(=O)C2)cc(OC)c1OC (stereo not drawn) yielded solubility kinetic of > 59.9 µg/mL

The reported value for Cc1ccc(S(=O)(=O)/N=C(\N)c2ccc(Cl)cc2)cc1 in terms of solubility kinetic is > 46.3 µg/mL

Recorded result, Cc1cccc(-c2noc(-c3c(C)noc3C)n2)c1 , solubility kinetic: < 0.2 µg/mL

The compound listed as Cl.c1ccc2c3c([nH]c2c1)CCNC3 shows solubility kinetic equal to > 31.3 µg/mL

For this compound ( CC(=O)N1CCN(c2nc(N)c(C#N)c(CC#N)c2C#N)CC1 ), measured solubility kinetic is > 46.4 µg/mL

Kindly note the recorded solubility kinetic for CC1CN(S(=O)(=O)c2cccc(C(=O)NCCc3ccc(S(N)(=O)=O)cc3)c2)CC(C)O1 (stereo not drawn) , which is > 72.2 µg/mL

// recorded solubility kinetic for COCCCn1c(=O)c2ccccc2n(CC(=O)NC2CCCC2)c1=O : > 53.9 µg/mL

Briefly, solubility kinetic measured for O=C(Cc1ccccc1)NCC(=O)N1CCCCC1 : > 39.1 µg/mL

get_value(item= COc1cc2ccccc2cc1C(=O)N1CCCC(C(F)(F)F)C1 (stereo not drawn) , readout=solubility kinetic) returns > 50.6 µg/mL

Looking up Cc1cc(C)c(C(=O)CSc2nnc(C)c(=O)[nH]2)cc1C , I see its solubility kinetic listed as > 45.5 µg/mL

Form field solubility kinetic, entry O=C(CNC(=O)c1ccccc1F)NCc1cccnc1 : > 43.1 µg/mL

The compound listed as CN1CCC(CNC(=O)Nc2csc3ccccc23)CC1 shows solubility kinetic equal to > 45.5 µg/mL

Note to self: solubility kinetic recorded for CCCC(=O)NC(c1ccc(C(C)C)cc1)c1ccc2cccnc2c1O (stereo not drawn) was < 0.4 µg/mL

// sample Cc1ccc(CNC(=S)N2CCOCC2)cc1 , its solubility kinetic was > 37.6 µg/mL

// field: solubility kinetic; key: O=C(NCC1CCCO1)c1cc2cc(Cl)ccc2[nH]1 (stereo not drawn) ; value = 17 µg/mL

Value of measured solubility kinetic for the entry COc1cc(CCC(=O)OCC(=O)NCCc2ccc(S(N)(=O)=O)cc2)cc(OC)c1OC : > 72.1 µg/mL

The measured solubility kinetic associated with Cc1ccc(-c2c[nH]c(=S)n2-c2ccccc2)cc1 reads 6 µg/mL

Lab note: measured solubility kinetic of CS(=O)(=O)N1CCN(C(=O)c2ccc3c(c2)OCCO3)CC1 was > 49 µg/mL

Quick note, solubility kinetic for C=CCNc1cc(=O)n(Cc2ccccc2)c(=O)[nH]1 landed at 29.7 µg/mL

Notebook: COC(=O)c1ccc(N)nc1 , solubility kinetic read as > 22.8 µg/mL

Reported solubility kinetic for CCOC(=O)c1c(CC(C)C)csc1NC(=O)c1ccccc1C(=O)O was 54.1 µg/mL

So, C=CCNC(=S)N1CCc2c([nH]c3ccccc23)C1C (stereo not drawn) ? Its solubility kinetic was 27.7 µg/mL

Entry N#Cc1ccc(C(=O)N2CCN(c3ncccn3)CC2)cc1 , solubility kinetic reported as > 44 µg/mL

So, Cc1ccc(C(=O)N2c3ccccc3OCC2C)cc1 (stereo not drawn) ? Its solubility kinetic was 37 µg/mL

Note to self: solubility kinetic recorded for Cc1c(C(=O)N2c3ccccc3CC2C)oc2ccccc12 (stereo not drawn) was 0.7 µg/mL

// sample CN1CCCC(OC(=O)c2ccccc2Br)C1.Cl (stereo not drawn) , its solubility kinetic was > 50.2 µg/mL

The compound listed as O=C(CSc1nc(O)cc(=O)[nH]1)N1CCOCC1 shows solubility kinetic equal to > 40.7 µg/mL

solubility kinetic reading for Cc1ccc(C(=O)NCCCNC(=O)COc2ccc(C)c(C)c2)cn1 : 49.1 µg/mL
